tested on: 786-0 renal; test: NCI-60 one-dose screen, 48 h (100 = growth as untreated, 0 = no growth, -100 = all killed); settings: 10 µM unless noted
Compounds without any hit were thinned out: in the full panel of roughly 83,000, 20% have a hit.
Under this convention, rule met denotes growth strictly below 80% and rule not met denotes growth at or above 80%.

- COMPOUND: "N=C(N)c1ccc(S(N)(=O)=O)cc1"
  CLASS NAME: "rule not met"
- COMPOUND: "N#C/C(=C\\c1ccc(-c2ccc(Br)cc2)o1)c1nc(-c2cccs2)cs1"
  CLASS NAME: "rule not met"
- COMPOUND: "Nc1c(C(=O)Nc2c(Cl)cccc2Cl)sc2nc3c(cc12)C(=O)CCC3"
  CLASS NAME: "rule met"
- COMPOUND: "Cc1ccc(Cc2cnc(NC(=O)/C=C/c3cccc(C)c3)s2)cc1"
  CLASS NAME: "rule met"
- COMPOUND: "O=C1C=Cc2ncccc2C1=O"
  CLASS NAME: "rule not met"
- COMPOUND: "CC(=O)O[C@H]1CC[C@]2(C)[C@H]3C(=O)C=C4[C@@H]5C[C@](C)(C(=O)N6CCCNCC6)CC[C@]5(C)CC[C@@]4(C)[C@]3(C)CC[C@H]2C1(C)C"
  CLASS NAME: "rule met"
- COMPOUND: "COC(=O)[C@]12CC[C@@H](C)[C@H](C)[C@@H]1C1=CC[C@@H]3[C@@]4(C)C=C(O)C(=O)C(C)=C4CC[C@@]3(C)[C@]1(C)CC2"
  CLASS NAME: "rule met"
- COMPOUND: "CCCCCCCC(=O)SCC/C=C/[C@@H]1CC(=O)NCc2cccc(n2)CN(Cc2ccc3ccccc3c2)CC(=O)N[C@@H](C(C)C)C(=O)O1"
  CLASS NAME: "rule met"
- COMPOUND: "CCCCC/C(=C\\c1ccccc1)C1OC(C)C(C)O1 (centres undefined)"
  CLASS NAME: "rule not met"
- COMPOUND: "COc1ccc(-c2cc(-c3c(C)oc4cc5occc5c(OC)c4c3=O)nc(N)c2C#N)cc1OC"
  CLASS NAME: "rule not met"

Hello, I'm reviewing records and need to know if growth of COc1ccccc1CNc1nc(N)nc2[nH]c3ccc(O)cc3c12 is below 80%. Could you check? rule not met

Hello, I'm reviewing records and need to know if growth of COc1cc(-c2cc(-c3nc4cc(Cl)c(Cl)cc4[nH]3)[nH]n2)cc(OC)c1OC is below 80%. Could you check? rule not met

Hello, I'm reviewing records and need to know if growth of COc1ccc(/C=C2\N=C(c3ccccc3)N(c3cc(OC)c(OC)cc3C(=O)N3N=C(C)CC3=O)C2=O)cc1 is below 80%. Could you check? rule not met

Hello, I'm reviewing records and need to know if growth of N#CC1=C(N)Oc2ccc3ccccc3c2C1c1ccccc1Cl (centres undefined) is below 80%. Could you check? rule met

Hello, I'm reviewing records and need to know if growth of Cc1ccc(N(CC(=O)Nc2ccc(S(=O)(=O)N3CCC(N4CCCC4)CC3)cc2)S(=O)(=O)c2ccc(Cl)cc2)cc1 is below 80%. Could you check? rule met

Hello, I'm reviewing records and need to know if growth of COc1ccc(C(=O)c2ccc(C)cc2)c(OC)c1OC is below 80%. Could you check? rule not met

Hello, I'm reviewing records and need to know if growth of Fc1ccc2c(c1)c(-c1nc(-c3c[nH]c4ncccc34)cs1)cn2CCCN1CCCCC1 is below 80%. Could you check? rule met

Hello, I'm reviewing records and need to know if growth of C#CCC(C)(O)/C=C/C1=C(C)CCCC1(C)C (centres undefined) is below 80%. Could you check? rule not met

Hello, I'm reviewing records and need to know if growth of COc1cccc(-c2nn(-c3ccccc3)cc2-c2ccnc(NCCNS(=O)(=O)c3ccc(Cl)cc3)c2)c1 is below 80%. Could you check? rule met
